The reported numbers originate from the emibetuzumab library of Makowski et al. (2022).

B1: VH:VL chains; a variant is named by its letters at X, in order (parent)
chain 1: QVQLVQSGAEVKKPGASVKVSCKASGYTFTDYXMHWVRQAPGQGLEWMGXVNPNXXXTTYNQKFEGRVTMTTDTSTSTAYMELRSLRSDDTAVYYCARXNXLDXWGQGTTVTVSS
chain 2: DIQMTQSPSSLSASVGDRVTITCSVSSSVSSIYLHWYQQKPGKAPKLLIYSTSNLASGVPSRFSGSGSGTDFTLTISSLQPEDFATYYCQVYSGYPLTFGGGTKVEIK

- Variants of: B1
- method_summary: yeast display scFab, FACS + sequencing
- condition_summary: with MET
The other results are listed elsewhere or left out. The hit rate among all sequences tested is not known here.
measured_attribute: antigen binding call

// solved cases for antigen binding call follow
{"columns": ["mutant_id", "antigen binding call"],
 "data": [
  ["FRGRGSAA", "binds"],
  ["DATGGDWA", "no binding"],
  ["FRRGGSGS", "binds"],
  ["DATRGAGD", "no binding"],
  ["YRRRGAVD", "binds"],
  ["FRTGGAVA", "binds"],
  ["YRARGSVF", "binds"],
  ["AKTRDDVA", "no binding"]
]}

What measured antigen binding call goes with `DTKAADGV` ? no binding

Sample `FRGRDDWA` — what was its antigen binding call? no binding

// antigen binding call lookup, key: `VAATGVSD` no binding

Record request: antigen binding call value, item `YRARGSLF` binds

Report antigen binding call for `YRRRGYVD` please. no binding

Which antigen binding call value is on record for `DEGTGAVA` ? no binding

I am curious: what antigen binding call value has been reported for `YRRRGDVD` ? binds

Tell me the measured antigen binding call of `VAAAGAAV` , please. no binding
